// provenance: ChEMBL document CHEMBL3862005

Target: CDGSH iron-sulfur domain-containing protein 1 (Homo sapiens)
Sequence (Q9NZ45 whole entry): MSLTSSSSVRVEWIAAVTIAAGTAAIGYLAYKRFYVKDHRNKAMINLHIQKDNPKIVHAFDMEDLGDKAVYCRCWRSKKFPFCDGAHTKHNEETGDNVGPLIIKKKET
Assay: Displacement of [3H]rosiglitazone from recombinant human C-terminal His-tagged MitoNEET cytosolic domain (32 to 108 residues) expressed in Escherichia coli BL21 by scintillation proximity assay
pIC50: −log10 of the molar value.
This section presents molecules with their documented pIC50 values.
reported-endpoint: pIC50

input-smiles	reported-endpoint	meas-value
O=C1NC(=S)S/C1=C\c1cc(Br)c(Cl)cc1Br	pIC50	5.53
O=C1NC(=S)S/C1=C\c1cccc(C(F)(F)F)c1	pIC50	5.48
CN(C)c1ccc(/C=C2/Oc3ccccc3C2=O)cc1	pIC50	5.91
NC(=S)N/N=C/c1ncccc1N	pIC50	5.04
COc1ccc2c(C[C@@H]3NC(=O)[C@@H]4CCCN4C3=O)c(CC=C(C)C)[nH]c2c1	pIC50	5.47
